- SYSTEM UNDER TEST: NLRP3 (Homo sapiens, UniProt Q96P20)
- Sequence (Q96P20 whole entry): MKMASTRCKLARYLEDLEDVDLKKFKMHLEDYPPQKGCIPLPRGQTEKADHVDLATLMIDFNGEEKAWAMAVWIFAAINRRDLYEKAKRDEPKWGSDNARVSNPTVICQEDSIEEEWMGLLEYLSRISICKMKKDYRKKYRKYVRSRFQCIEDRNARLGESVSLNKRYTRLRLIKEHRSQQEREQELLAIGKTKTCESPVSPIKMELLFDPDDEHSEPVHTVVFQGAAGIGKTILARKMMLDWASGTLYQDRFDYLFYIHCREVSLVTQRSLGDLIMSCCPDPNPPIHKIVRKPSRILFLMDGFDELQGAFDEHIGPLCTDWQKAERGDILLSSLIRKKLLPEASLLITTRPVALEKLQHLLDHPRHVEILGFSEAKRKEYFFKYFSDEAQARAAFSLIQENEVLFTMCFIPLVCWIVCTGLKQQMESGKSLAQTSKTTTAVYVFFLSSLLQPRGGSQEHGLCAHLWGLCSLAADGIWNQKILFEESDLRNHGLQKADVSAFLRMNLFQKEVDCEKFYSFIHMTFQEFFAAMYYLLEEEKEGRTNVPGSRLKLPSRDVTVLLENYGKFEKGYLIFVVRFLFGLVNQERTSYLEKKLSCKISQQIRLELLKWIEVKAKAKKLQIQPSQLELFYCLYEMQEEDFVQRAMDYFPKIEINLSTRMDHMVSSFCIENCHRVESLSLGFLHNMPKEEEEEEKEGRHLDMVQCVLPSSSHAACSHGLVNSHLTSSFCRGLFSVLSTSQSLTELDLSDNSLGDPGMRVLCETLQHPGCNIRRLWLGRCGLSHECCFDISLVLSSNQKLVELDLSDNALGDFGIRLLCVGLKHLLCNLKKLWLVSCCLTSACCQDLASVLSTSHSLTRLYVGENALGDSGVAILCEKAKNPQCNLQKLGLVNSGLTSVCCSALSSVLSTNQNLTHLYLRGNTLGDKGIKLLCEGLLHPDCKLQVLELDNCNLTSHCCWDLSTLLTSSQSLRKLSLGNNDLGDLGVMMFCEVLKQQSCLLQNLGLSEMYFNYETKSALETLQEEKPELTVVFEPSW
- ASSAY INFO: Human whole blood IL1β release assay
- Assay type: cell-based
- TEST SETTINGS: LPS 1 μg/ml, nigericin 10 μM, IL-1β AlphaLisa, 10 μM top dose (Example 2: top dose of 30 μM), read-out: HWB IC50
- Experimental: For systemic delivery, the ability to inhibit NLRP3 when the compounds are present within the bloodstream is of great importance. […] Human whole blood in sodium-heparin or lithium-heparin tubes was obtained from healthy donors from a volunteer donor panel. • 1. […] IL-1β was measured according to the manufacturer protocol (Perkin Elmer-AlphaLisa IL-1 Kit AL220F-5000) • 8. […]
pIC50: −log10 of the molar value.
Entries and their pIC50 values follow.

Example entries and their recorded answers appear below.
[[record]]
compound = "CCN(CC)CCCS(=O)(=O)c1nnc(Nc2c(-c3ccncc3)cc(F)c3c2CCC3)[nH]1"
system_under_test = "NLRP3 (Homo sapiens, UniProt Q96P20)"
assay_value = "≥ 5.30"

[[record]]
compound = "COc1cc(-c2c(C)cc3c(c2Nc2nnc(S(=O)(=O)N4CCC(N(C)C)CC4)[nH]2)CCC3)ccn1"
system_under_test = "NLRP3 (Homo sapiens, UniProt Q96P20)"
assay_value = "≥ 6.00"

[[record]]
compound = "CN1CCCC12CCN(S(=O)(=O)c1nnc(Nc3c(-c4ccnc(OC(F)F)c4)ccc4c3CCO4)[nH]1)CC2"
system_under_test = "NLRP3 (Homo sapiens, UniProt Q96P20)"
assay_value = "≥ 5.30"

[[record]]
compound = "COc1cc(-c2cc(F)cc(C(C)C)c2Nc2nnc(S(=O)(=O)c3ccccc3)[nH]2)ccn1"
system_under_test = "NLRP3 (Homo sapiens, UniProt Q96P20)"
assay_value = "≥ 5.30"

[[record]]
compound = "CC(c1cc(S(=O)(=O)c2nnc(Nc3c4c(cc5c3CCC5)CCC4)[nH]2)nn1C)N(C)C (stereo not shown)"
system_under_test = "NLRP3 (Homo sapiens, UniProt Q96P20)"
assay_value = "≥ 5.00"

[[record]]
compound = "CCN(CC)C[C@@H]1CCN(S(=O)(=O)c2nnc(Nc3c4c(cc5c3CCC5)CCC4)[nH]2)C1"
system_under_test = "NLRP3 (Homo sapiens, UniProt Q96P20)"
assay_value = "≥ 6.30"


From here, focus on the item given below.
Give the measured pIC50 of O=S(=O)(c1nnc(Nc2c3c(cc4c2CCC4)CCC3)[nH]1)N1CC(N2CCCC2)C1 .
≥ 5.30
